Attribution: the RNAGym collection of RNA variant scans (doi:10.7554/elife.80360)

B1: HDV Ribozyme (parent)
chain: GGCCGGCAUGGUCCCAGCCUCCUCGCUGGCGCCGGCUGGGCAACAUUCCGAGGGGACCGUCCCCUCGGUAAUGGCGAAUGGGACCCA

Variants of: B1
methodSummary: self-cleavage, relative activity (ratio to wild type); higher = more cleavage; co-transcriptional
So basically every entry gets a class from its self-cleavage, ranges being low: < 0.2; moderate: ≥ 0.2 and < 0.6; high: ≥ 0.6

State the class of the variant shown: G11A C62G
moderate

State the class of the variant shown: A8U C62U
high

State the class of the variant shown: C13G G82C
moderate

State the class of the variant shown: C4U C7U
moderate

State the class of the variant shown: C36A G55U
low

State the class of the variant shown: G55U G59C
high

State the class of the variant shown: C13A C30G
low

State the class of the variant shown: C14A C44A
moderate

State the class of the variant shown: G6A G38A
low

State the class of the variant shown: G82U A87U
moderate

State the class of the variant shown: C62A C84U
high
